# System: Plasmodium falciparum
# PROTOCOL DESCRIPTION: GSK_TCMDC: Inhibition of Plasmodium falciparum Dd2 in whole red blood cells, using parasite LDH activity as an index of growth. Test compounds present at 2uM
# Assay type: functional
Param threshold (60%) applies to Inhibition; output Condition met when value >= threshold, Condition not met when value < threshold.

Br.CCCCCCCCn1c2c(c(=N)c3c1CCC3)CCCC2 ... Condition met
CN(C)S(=O)(=O)c1ccc(Nc2nc(NCCC3C=NC=N3)nc3cc[nH]c(=O)c23)cc1 (stereo unspecified) ... Condition met
Cc1noc(C)c1-c1ccc2c(Nc3ccccc3C(C)(C)C)c(C(=O)NCc3cccc4ccccc34)cnc2c1.Cl ... Condition met
CC(Cc1ccc(CN(CC(N)=O)Cc2ccc(CC(C)NCCc3cccc(Cl)c3)cc2)cc1)NCCc1cccc(Cl)c1.O=C(O)C(F)(F)F (stereo unspecified) ... Condition met
COc1cc(Cc2cnc(N)nc2N)cc(OCCCCC#N)c1OC ... Condition not met

Q: Answer whether Inhibition of NC(=O)c1ccc(NC(=O)CN(Cc2ccc(Cl)cc2)S(=O)(=O)c2ccccc2)cc1 is greater than or equal to 60%.
A: Condition met

###

# System: Plasmodium falciparum
# PROTOCOL DESCRIPTION: GSK_TCMDC: Inhibition of Plasmodium falciparum 3D7 in whole red blood cells, using parasite LDH activity as an index of growth. Test compounds present at 2uM
# Type: functional
Param threshold (90%) applies to Inhibition; output 1 when value >= threshold, -1 when value < threshold.

Here are 3 compounds together with their reported answers.
CCCCCN1CCC(NS(=O)(=O)c2ccc(C(=O)Nc3cccc(C(F)(F)F)c3)cc2)C1.O=C(O)C(F)(F)F (stereo unspecified) ... 1
Cc1cc(=NN=Cc2cccc(F)c2)c2cccc(C)c2[nH]1 ... 1
CN(Cc1cnc2nc(N)nc(N)c2n1)c1ccc(C(=O)N[C@H](CCC(=O)OC(C)(C)C)C(=O)N[C@@H](CCC(=O)OC(C)(C)C)C(=O)OC(C)(C)C)cc1 ... -1

Q: Answer whether Inhibition of C=C(F)c1sc(CNCCCNc2nc3ccccc3[nH]2)c(C)c1Br is greater than or equal to 90%.
A: 1

Q: Answer whether Inhibition of COc1ccc(CNC2Cc3ccccc3C2)cc1-c1cccc(S(=O)(=O)NCCN2CCCC2)c1.O=C(O)C(F)(F)F is greater than or equal to 90%.
A: 1

###

# Test system: HepG2
# PROTOCOL DESCRIPTION: GSK_TCMDC: Percent inhibition of human HepG2 cell line. Test compounds present at 10uM.
# Format: functional
This section presents compounds with their documented Inhibition values.
// return numeric value only (unit: %, not printed)

COc1cccc2c(NN=Cc3ccc(Cl)cc3)ccnc12 ... 26
CC(C)N1CCN(C(=O)c2ccc(CNCCCN3CCN(c4ccccc4C(F)(F)F)CC3)s2)CC1.Cl ... 32
O=C(Nc1cccnc1)c1ccc(-c2cc3ccncc3cc2OC2CCNCC2)s1 ... 0
CC(C)(C)c1ccc(CNC(=O)/C=C/c2ccc(CNC3CCNCC3)cc2)cc1 ... 6
CCOCCCn1c(=N)c(C(=O)NC(C)c2ccccc2)cc2c(=O)n3cccc(C)c3nc21 (configuration not stated) ... 24

Q: Value lookup for Inhibition; key = CCN(CC)CCN(Cc1ccc(-c2ccc(Cl)cc2)cc1)C(=O)Cn1cc(CN(C)C)c(=O)nc1SCc1ccc(F)cc1
A: 49

Q: Value lookup for Inhibition; key = CC(C)CC(=O)N(Cc1ccc(-c2ccc(CNC3Cc4ccccc4C3)cc2)cc1)C1CCNCC1.O=C(O)C(F)(F)F
A: 20

###

This section presents compounds with their documented Inhibition values.
# System: Plasmodium falciparum
# PROTOCOL DESCRIPTION: GSK_TCMDC: Inhibition of Plasmodium falciparum 3D7 in whole red blood cells, using parasite LDH activity as an index of growth. Test compounds present at 2uM
# Type: functional
// return numeric value only (unit: %, not printed)

// worked examples, Inhibition included
Cc1c(C)n(C2CCCCC2)c2ncnc(OC3CCN(CC(=O)N4CCCC4)CC3)c12 ... 95
CN1CCN(CCCN(Cc2csc(-c3ccc(CNCc4ccccc4)cc3)n2)C(=O)Nc2cc(Cl)cc(Cl)c2)CC1.O=C(O)C(F)(F)F ... 100
Cc1cccc2nc(-c3cccc(-c4ccc(NC(=O)C5CCCO5)cc4)c3)[nH]c12 (stereo unspecified) ... 91
O=C(NCCCCCN1CCC(c2c[nH]c3ccccc23)CC1)c1ccc(-c2cccnc2)cc1 ... 89
Cn1nc(C(F)(F)F)c(-c2ccc(F)cc2)c1NC(=O)Nc1ccc(F)cc1 ... 100

// moving on: another record for Inhibition
Q: Value lookup for Inhibition; key = Cc1cccc2nc(-c3ccc(-c4cccc(NC(=O)NCc5cccc(F)c5)c4)s3)[nH]c12
A: 88

###

# Test system: Plasmodium falciparum
# PROTOCOL DESCRIPTION: GSK_TCMDC: Inhibition of Plasmodium falciparum Dd2 in whole red blood cells, using parasite LDH activity as an index of growth. Test compounds present at 2uM
# Assay type: functional
This section presents compounds with their documented Inhibition values.
// return numeric value only (unit: %, not printed)

// worked examples, Inhibition included
N=c1c2nc(-c3c(F)cccc3Cl)[nH]c(=O)c2[nH]c(=O)n1-c1ccccc1 ... 0
CN1CCN(c2ccnc3cc4c(cc23)N(Cc2ccccc2)CC4)CC1 ... 27
COc1ccccc1C1CCN(C2CCC(NC(=O)c3cc4cc(C(C)C)ccc4[nH]3)CC2)CC1 (configuration not stated) ... 98
O=C(Nc1ccc(Cl)cc1)Nc1cccc(-c2cccc(-c3nc4cc(C(F)(F)F)ccc4[nH]3)c2)c1 ... 97
CCOc1ccc(C=CC(=O)Nc2ccc3nc(N4CCN(C)CC4)cc(C)c3c2)cc1OC ... 70

Q: Entry Fc1ccc2[nH]c(-c3ccc(-c4ccc(CN5CCN(CCN6CCOCC6)CC5)cc4)cc3)nc2c1.O=C(O)C(F)(F)F , system Plasmodium falciparum: what Inhibition was measured?
A: 100

Q: Entry CCCCCCCc1ccc(-c2c(C)[nH]c(C)c(Cl)c2=O)cn1 , system Plasmodium falciparum: what Inhibition was measured?
A: 96

###

# System: HepG2
# PROTOCOL DESCRIPTION: GSK_TCMDC: Percent inhibition of human HepG2 cell line. Test compounds present at 10uM.
# Format: functional
Okay, here is how we bin by Inhibition: bottom = under 6%, middle = from 6% up to 20%, top = 20% and over

Q: Band of CC(=O)N1Cc2ccccc2C1=O ?
A: middle

###

This section presents compounds with their documented Inhibition values.
# Test system: Plasmodium falciparum
# PROTOCOL DESCRIPTION: GSK_TCMDC: Inhibition of Plasmodium falciparum Dd2 in whole red blood cells, using parasite LDH activity as an index of growth. Test compounds present at 2uM
# Format: functional
// return numeric value only (unit: %, not printed)

Q: Value lookup for Inhibition; key = CN(Cc1cccc(C#N)c1)C1CCN(c2cc(NC(=O)c3ccc(F)cc3)ccn2)CC1.O=C(O)C(F)(F)F
A: 23

Q: Value lookup for Inhibition; key = CCSc1nc2sc3c(c2c(=O)n1-c1ccccc1)CCN(C)C3
A: 71

Q: Value lookup for Inhibition; key = COc1ccc(CNC2CCN(C)CC2)cc1-c1ccc(OC)c(S(=O)(=O)NCc2ccccc2)c1.O=C(O)C(F)(F)F
A: 95

Q: Value lookup for Inhibition; key = Cc1cc(C2CCN(CCCCNC(=O)c3ccc(NC(=O)c4ccc(Cl)cc4)cc3)CC2)c(C)cc1OCc1ccncc1.Cl
A: 92

Q: Value lookup for Inhibition; key = Cc1cccc2nc(-c3ccc(-c4cccc(CNCc5cnn(-c6ccccc6)n5)c4)s3)[nH]c12.O=C(O)C(F)(F)F
A: 58

###

# System: HepG2
# PROTOCOL DESCRIPTION: GSK_TCMDC: Percent inhibition of human HepG2 cell line. Test compounds present at 10uM.
# Type: functional
Param threshold (20%) applies to Inhibition; output criterion met when value >= threshold, criterion not met when value < threshold.

Here are 9 compounds together with their reported answers.
O=C(Nc1cccc(-c2ccc(-c3nc4ccccc4[nH]3)cc2)c1)c1cccnc1 ... criterion not met
COc1ccc(NC(=O)[C@H](Cc2ccccc2)Nc2cc(C)nc(NCc3ccccc3C)n2)cc1.O=C(O)C(F)(F)F ... criterion not met
Cc1cc(Nc2cccc(C(F)(F)F)c2)nc(N)n1 ... criterion not met
O=C(/C=C/c1cccc(Cl)c1)N1CCC(C(O)CN2CCC3(CC2)CN(C(=O)/C=C/c2cccc(Cl)c2)c2ccccc23)CC1 (stereo not given) ... criterion met
CC(=O)N1N=C(c2ccc(Cl)cc2)Sc2c1nc(C1CCCCC1)n2C(C)=O ... criterion not met
CCCc1ccc(S(=O)(=O)NC2CCN(c3ccnc(Nc4ccc(OC)cc4)n3)C2)cc1 (stereo not given) ... criterion met
C=CCC(C)n1ncc2c3c(N)nc(N)nc3ccc21 (stereo not given) ... criterion met
CCN(CC)CCNc1nccc(N(C)c2ccc(NC(=O)Nc3cc(C(F)(F)F)ccc3F)cc2)n1.O=C(O)C(F)(F)F ... criterion met
O=C(Nc1cccc(-c2ccc(-c3nc4cc(C(F)(F)F)ccc4[nH]3)cc2)c1)c1csnn1 ... criterion met

In the following, a different compound is considered.
Q: Answer whether Inhibition of CC(C)c1ccc(S(=O)(=O)N(c2ccc3c(c2)OCO3)C2CCN(Cc3ccccc3)C2)cc1 (stereo not given) is greater than or equal to 20%.
A: criterion not met
